Biological target: T1, ZFP SBS#205 (synthetic)
T1 chain: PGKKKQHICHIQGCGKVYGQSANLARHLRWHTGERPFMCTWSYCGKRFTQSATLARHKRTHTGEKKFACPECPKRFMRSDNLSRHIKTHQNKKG
Test: EMSA
Conditions: tags: MBP fusion
observation type: pKd
Conceptually, pKd converts a concentration in mol/L into minus its log10.

// lookup pKd for GAGGTAGAA (dsDNA) DNA 1: GAGGTAGAA DNA 2: TTCTACCTC
7.10

Origin of the recorded values: patent US20030068675
